Target: T1, corticotropin-releasing hormone (CRH) peptide (human and mouse (same sequence), not fully specified)
T1 peptide: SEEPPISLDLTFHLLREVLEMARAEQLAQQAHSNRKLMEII
Assay: cell-based or functional assay
In this section we review reported hCRHR1 Luciferase Reporter Assay IC50 values for a set of binders.
# do not omit the unit; it follows the number

1. PR005662 (antibody, human IgG1, kappa, V domains shown, PTM-removal variant of PR004290) VH: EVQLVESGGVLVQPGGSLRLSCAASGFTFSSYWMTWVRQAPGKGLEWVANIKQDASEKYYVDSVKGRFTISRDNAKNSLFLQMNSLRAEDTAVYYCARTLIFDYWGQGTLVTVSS VL: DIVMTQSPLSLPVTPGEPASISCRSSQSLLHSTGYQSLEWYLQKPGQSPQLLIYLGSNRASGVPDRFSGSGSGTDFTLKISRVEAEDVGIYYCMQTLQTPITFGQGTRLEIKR ... 15.8 nM
2. PR006144 (antibody, human IgG1, kappa, V domains shown, PTM-removal variant of PR004290) VH: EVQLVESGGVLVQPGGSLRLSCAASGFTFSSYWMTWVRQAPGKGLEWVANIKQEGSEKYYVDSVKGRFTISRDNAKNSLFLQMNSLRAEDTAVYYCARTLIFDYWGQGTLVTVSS VL: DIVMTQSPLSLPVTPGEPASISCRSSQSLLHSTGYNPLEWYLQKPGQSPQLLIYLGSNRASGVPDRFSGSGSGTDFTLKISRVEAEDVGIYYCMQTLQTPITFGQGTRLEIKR ... 1.2 nM

Then this binder:
Please supply the value of reported hCRHR1 Luciferase Reporter Assay IC50 for the item PR006153 (antibody, human IgG1, kappa, V domains shown, PTM-removal variant of PR004290) VH: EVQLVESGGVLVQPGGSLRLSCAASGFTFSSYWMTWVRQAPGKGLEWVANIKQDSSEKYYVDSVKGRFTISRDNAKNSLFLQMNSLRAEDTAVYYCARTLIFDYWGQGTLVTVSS VL: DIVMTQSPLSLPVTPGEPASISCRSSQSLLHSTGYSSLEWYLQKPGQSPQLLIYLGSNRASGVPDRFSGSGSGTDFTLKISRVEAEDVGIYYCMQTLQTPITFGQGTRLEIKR
12.4 nM
